# Assay Summary: small-molecule microarray binders of probe aEGFR, primary screen, biochemical, biotinylated probe, 635/667 nm fluorescence (AID 1097);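 further: probe is a biotinylated anti-EGFR antibody binding compounds printed on slides; score combines fluorescence near 667 nm and signal to noise of each spot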
# Cond: higher = more signal
Measured composite z-score, listed per entry for reference.

Molecule: O=C1C2C=CC(C(O)c3cccc(O)c3)N(Nc3ccccc3F)C2C(=O)N1c1ccccc1 (centres undefined)
composite z-score: -0.13

Exercise: Entry "COCCCNC(=O)[C@@]1(Sc2ccc(C)cc2)CC(=O)N(C2CCCCC2)[C@@H]1c1ccc(CO)cc1I" has what composite z-score?
Solution: 0.0944

Exercise: Reported composite z-score for "NC(=O)NCC#Cc1ccc2c(c1)[C@]1(C(=O)N2)[C@H](C(=O)N2CCCCCCC2)[C@H]2C(=O)O[C@H](c3ccccc3)[C@H](c3ccccc3)N2[C@@H]1c1ccc(O)cc1" : what is it?
Solution: 0.944

Exercise: Which composite z-score value is on record for "CCCC=C(CCC)[C@@H](NC(=O)c1ccco1)c1ccc(C(=O)OC)cc1" ?
Solution: -0.15

---

# System: Human papillomavirus type 1a protein E7 (residues 44-93)
# Assay Summary: HPV1a E7 fragment binders on microarrays, primary screen, biochemical, small-molecule microarray, residues 44-93, 635 nm fluorescence (AID 1108);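 further: E7 fragment applied at 1 µg/mL in TBST for 1 h at 4 C; score combines spot fluorescence with its signal to noise ratio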
# Cond: small-molecule microarray binding, fluorescence 635 nm; higher = more signal
The entries below are paired with their reported composite z-score.
Provide a numeric answer; units are not to be included.

Some solved cases for reference:
Compound: Cc1ccc(S[C@]2(C(=O)NCC(F)(F)F)CC(=O)N(C3CCCCC3)[C@@H]2c2ccc(CO)cc2)cc1
System Under Test: Human papillomavirus type 1a protein E7 (residues 44-93)
Readout Label: composite z-score
Recorded Value: 0.82
//
Compound: CC(C)CNC(=O)[C@@]1(C)c2ccccc2C(=O)N(Cc2cc(F)cc(C(F)(F)F)c2)[C@H]1c1ccc(CO)cc1
System Under Test: Human papillomavirus type 1a protein E7 (residues 44-93)
Readout Label: composite z-score
Recorded Value: 1.35
//
Compound: C=C(COC)C(=O)CC[C@@H](OC(=O)c1cccnc1)c1cccc(OCCO)c1
System Under Test: Human papillomavirus type 1a protein E7 (residues 44-93)
Readout Label: composite z-score
Recorded Value: 0.743
//
Compound: CC[C@H](C)C(=O)O[C@H]1CC[C@]2(C)C3=C(CCC2C1(C)C)[C@]1(C)CC[C@H]([C@H](C)CCCC(C)C)[C@@]1(C)CC3 (some centres not stated)
System Under Test: Human papillomavirus type 1a protein E7 (residues 44-93)
Readout Label: composite z-score
Recorded Value: 0.758
//
Compound: C[N+](C)(C)CCCCCCNC(=O)[C@H]1C[C@H]2C(=O)NCC(=O)N2[C@H]1c1cccc(OCCO)c1
System Under Test: Human papillomavirus type 1a protein E7 (residues 44-93)
Readout Label: composite z-score
Recorded Value: 0.626
//
Compound: CCC[C@@H]1[C@@H](Sc2ccccc2)[C@@H](C(=O)O)[C@H](c2ccc(C)cc2)N1S(=O)(=O)c1ccc(C)cc1
System Under Test: Human papillomavirus type 1a protein E7 (residues 44-93)
Readout Label: composite z-score
Recorded Value: 1.47
//
Compound: COc1ccc([Si](C)(C)[C@H]2[C@H](CCO)O[C@@]3(C(=O)N(Cc4ccc(N5CCOC5=O)cc4)c4ccccc43)[C@@H]2C)cc1
System Under Test: Human papillomavirus type 1a protein E7 (residues 44-93)
Readout Label: composite z-score
Recorded Value: 1.11
//
Compound: CC(C)C[C@@H]1NC(=O)[C@@]23C(=O)N[C@@H](Cc4ccccc4)C2[C@H](C)[C@@]2(C)O[C@H]2C3/C=C/C/C=C\CNC(=O)[C@@H](CC(C)C)NC1=O (some centres not stated)
System Under Test: Human papillomavirus type 1a protein E7 (residues 44-93)
Readout Label: composite z-score
Recorded Value: 0.741
//
Compound: Cc1ccccc1C(O)C1C=CC2C(=O)N(c3ccccc3)C(=O)C2N1Nc1ccccc1F (configuration not stated)
System Under Test: Human papillomavirus type 1a protein E7 (residues 44-93)
Readout Label: composite z-score
Recorded Value: 1.34
//
Compound: COc1ccc(CCNC(=O)[C@@]2(Sc3ccc(C)cc3)CC(=O)N(C(C)C)[C@@H]2c2ccc(CO)cc2)cc1
System Under Test: Human papillomavirus type 1a protein E7 (residues 44-93)
Readout Label: composite z-score
Recorded Value: 0.889

Exercise: Which composite z-score value belongs to "C=C(/C(=C/C[C@@H](OC(C)=O)c1ccccc1OCCO)c1cc(C(=O)OC)ccc1OC)C(C)C" ?
Solution: 0.326

Exercise: Value lookup for composite z-score; key = CN1C=C(C(=O)OCCS(C)(=O)=O)C(C(=O)OCCS(C)(=O)=O)=CC(CCCO)=CC1c1ccc(CN2CCCC2)cc1 (configuration not stated)
Solution: 1.45
